Collected max % larvae values appear next to each entry.
Test system: Danio rerio embryo/larva
testDescription: max % larvae with abnormal position across tested concentrations; higher = more toxic; extreme values may be limits of the assay
conditionSet: exposure: 6-8 hpf to 5 dpf, scored at 6 dpf
Entry rule: numbers only, all in %.

Query: Tell me its max % larvae given FC(F)(F)COC(OCC(F)(F)F)OCC(F)(F)F [tris(Trifluoroethoxy)methane] (max tested concentration (log10 uM): 2) as the entry.
Result: 0

Query: Tell me its max % larvae given O=C(O)C(F)(F)C(F)(F)C(F)(F)C(F)(F)C(F)(F)C(F)(F)C(F)(F)C(F)F [9H-Perfluorononanoic acid] (max tested concentration (log10 uM): 2) as the entry.
Result: 2.08

Next:
Query: Tell me its max % larvae given O=C(O)C(F)(F)C(F)(F)C(F)(F)C(F)(F)C(F)(F)C(F)(F)C(F)(F)C(F)(F)C(F)(F)C(F)(F)C(F)(F)C(F)(F)F [Perfluorotridecanoic acid] (max tested concentration (log10 uM): 1.30103) as the entry.
Result: 8.33

Query: Tell me its max % larvae given FC(F)(F)C(F)(F)C(F)(F)CI [Heptafluorobutyl iodide] (max tested concentration (log10 uM): 2) as the entry.
Result: 0

Query: Tell me its max % larvae given O=S(=O)(O)CCC(F)(F)C(F)(F)C(F)(F)C(F)(F)C(F)(F)C(F)(F)C(F)(F)C(F)(F)F [8:2 Fluorotelomer sulfonic acid] (max tested concentration (log10 uM): 2) as the entry.
Result: 0

Query: Tell me its max % larvae given O=S(=O)(Cl)C(F)(F)C(F)(F)C(F)(F)C(F)(F)C(F)(F)C(F)(F)C(F)(F)C(F)(F)F [Perfluoro-1-octanesulfonyl chloride] (max tested concentration (log10 uM): 2) as the entry.
Result: 25

Query: Tell me its max % larvae given O=C(O)C(F)(F)C(F)(F)C(F)F [4H-Perfluorobutanoic acid] (max tested concentration (log10 uM): 2) as the entry.
Result: 0

Query: Tell me its max % larvae given O=C(O)C=C(C(F)(F)F)C(F)(F)F [3,3-Bis(trifluoromethyl)-2-propenoic acid] (max tested concentration (log10 uM): 2) as the entry.
Result: 0

Query: Tell me its max % larvae given O=C(O)C(F)(F)C(F)(F)C(F)(F)F [Perfluorobutanoic acid] (max tested concentration (log10 uM): 2) as the entry.
Result: 0

Query: Tell me its max % larvae given NCC(F)(F)C(F)(F)C(F)(F)C(F)(F)C(F)(F)C(F)(F)C(F)(F)F [1H,1H-Perfluorooctylamine] (max tested concentration (log10 uM): 2) as the entry.
Result: 0

Query: Tell me its max % larvae given O=P(O)(O)CCC(F)(F)C(F)(F)C(F)(F)C(F)(F)C(F)(F)C(F)(F)C(F)(F)C(F)(F)F [((Perfluorooctyl)ethyl)phosphonic acid] (max tested concentration (log10 uM): 2) as the entry.
Result: 50

Query: Tell me its max % larvae given C=C(C)C(=O)OCCC(F)(F)C(F)(F)C(F)(F)C(F)(F)C(F)(C(F)(F)F)C(F)(F)F [(Perfluoro-5-methylhexyl)ethyl 2-methylprop-2-enoate] (max tested concentration (log10 uM): 2) as the entry.
Result: 0

----------
Test system: Danio rerio embryo/larva
testDescription: max % larvae with abnormal position across tested concentrations; higher = more toxic; extreme values may be limits of the assay
conditionSet: exposure: 6-8 hpf to 5 dpf, scored at 6 dpf
Collected max % larvae values appear next to each entry.
Entry rule: numbers only, all in %.

Consider the following illustrative entries.
Query: Tell me its max % larvae given OCC(F)(F)OC(F)(F)C(F)(F)OC(F)(F)C(F)(F)OC(F)(F)CO [1H,1H,11H,11H-Perfluorotetraethylene glycol] (max tested concentration (log10 uM): 1.47712) as the entry.
Result: 0

Query: Tell me its max % larvae given O=C(O)C(F)(F)C(F)(F)C(F)(F)C(=O)O [Perfluoropentanedioic acid] (max tested concentration (log10 uM): 2) as the entry.
Result: 0

--- query ---
Query: Tell me its max % larvae given O=P(O)(O)CCC(F)(F)C(F)(F)C(F)(F)C(F)(F)C(F)(F)C(F)(F)F [2-(Perfluorohexyl)ethylphosphonic acid] (max tested concentration (log10 uM): 2) as the entry.
Result: 10
